Tested on: PPARg:RXRa (NR concentration 180 nM, RXRa partner concentration 90 nM)
PROTOCOL_DETAILS: PBM binding z-score (relative to random genomic background probes); higher = stronger binding; sequences stand for … in GC…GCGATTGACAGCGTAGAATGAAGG
Entries and their PBM binding z-score values follow.
MEASURED_QUANTITY: PBM binding z-score

ACAGACAGGTGAATGAAGGTAACTCAGCTGGACG = 0.97
ATCGAAACGTCGAGGTGAGTATAGAGAAAGGGAA = 0.304
AGTCAATGTTCATCTAGGTAACGTAAGATATGCT = 0.881
AGAATGAGCTTATACGTAGATCAGGGAAGAAAGT = 0.415
ACTATTAGTTGAGACGAGGGCAACCTATAGGTTG = 0.636
CCTCGGAGGACAACAGGCGGTCAGAGCTGCCAGA = -0.327
GCTAGCAGACCATTTGGGTCACTCAATGACGGGC = 0.52
CGTCTAAGGTCAATGCTAGGTCAGTGAAAGCATT = 4.53
AACTCTAGGTAAAAGTTCAGTGAATCCCGAGGAT = 7.44
TAGCCTATGTCAGATCGGGCCAGTATACGCTATA = 0.0766
ATCGAAAGTTCGAAGGTGAGTATACCCACCCGAA = 1.07
CCAGACAGGTGAAAGGTAGCTCAGTCTGGTACGC = 3.22
